Values from ChEMBL document CHEMBL1201862

# Tested on: M19-MEL
# experiment: NCI tumour cell line growth inhibition, 48 h
Activity calls are given as the source filed them. No stated cut-off is given here; in the data, active = GI50 up to about 1.1 µM and inactive = higher.
property-name: GI50

                                    molecule           test_value
 0  CCOC(=O)N1CCC(=O)C[C@@H]1C/C=C/P1(=O)O[C@H](c2ccccc2)C(C)N1C(C)C (stereo partly specified)  > 100 µM (inactive)
 1        COC(=O)c1ccc(/C=C2\N=C(C)OC2=O)cc1  > 100 µM (inactive)
 2  Cc1c(Cl)cccc1NC(=O)C(=O)C1C(=O)NC(=O)NC1=O  > 100 µM (inactive)
 3  COc1ccc(/C=C2\CCC(C)(CN(C)C)C2=O)cc1Br (stereo unspecified)   17.3 µM (inactive)
 4  CS/C(C)=N/OC(=O)NCCCCNc1ccc(N=[N+]=[N-])cc1   34.6 µM (inactive)
 5  Clc1ccc(C2=NOC3C4CCC(C4)C23)cc1 (stereo unspecified)  > 100 µM (inactive)
 6  COC(=O)CCC(=O)N1CC1C (stereo unspecified)  > 100 µM (inactive)
 7  CCc1ccccc1NC(=O)C(=O)CC(=O)c1sc(Nc2ccccc2)nc1C  > 100 µM (inactive)
 8  CC(=O)OC1=C2CC3(C)OC(=O)CC(C)(C)C3=CC=C2C=C(C(C)C)C1=O (stereo unspecified)    0.526 µM (active)
 9    CC(C)=CC(=O)Cc1nc2cc(C)c(C)cc2[nH]c1=O  > 100 µM (inactive)
10  Brc1ccc(/N=c2/nc3ccccn3n3nc(-c4ccccc4)cc23)cc1   43.6 µM (inactive)

###

# Test system: OVCAR-5
# experiment: NCI tumour cell line growth inhibition, 48 h
Calls of active or inactive are those of the source. Cut-off read from the data, not from the text of the source: active = GI50 up to about 1.1 µM and inactive = higher.
GI50 values for the molecules below.

molecule	GI50
COc1cc(C(=O)Nc2cccc3ccccc23)c(Br)c(OC)c1OC	64.4 µM (inactive)
CC(C)C1(C)N=C(C(F)(F)F)c2cc(C(=O)C(F)(F)F)c3ccccc3c2N1 (centres undefined)	11.2 µM (inactive)
O=S(=O)(O)c1ccc2cccc(/N=N\c3c(O)ccc4ccccc34)c2c1	> 100 µM (inactive)
C=CC(Br)(CBr)CCC(Br)C(C)(C)Cl (centres undefined)	7.11 µM (inactive)
CC1(C)CC[C@]2(C)CC[C@]3(C)C(=CC[C@@H]4[C@@]5(C)CCC(=O)C(C)(C)[C@@H]5[C@H](O)C[C@]43C)[C@@H]2C1	16 µM (inactive)
COc1ccc2[nH]c3c(O)nncc3c2c1	> 100 µM (inactive)
COC(=O)C1=CC2C(=O)c3ccccc3C1(c1ccccc1)N2C1CCCCC1 (centres undefined)	32.3 µM (inactive)
CCc1ccccc1NC(=O)C(=O)CC(=O)c1sc(Nc2ccccc2)nc1C	> 100 µM (inactive)
Clc1ccc(C(Cc2cccc(Cl)c2)c2c(Cl)nc(N3CCNCC3)nc2Cl)cc1 (centres undefined)	12.5 µM (inactive)
CN(c1ccccc1)c1cc2ccccc2nn1	> 100 µM (inactive)
c1ccc([C@@H]2N[C@@]3(CO[Si](c4ccccc4)(c4ccccc4)c4ccccc4)CC[C@H]4CN[C@@H]2[C@H]43)cc1	16.1 µM (inactive)
CC[C@H](C)C(=O)O[C@H]1CCC=C2C=C[C@H](C)[C@H](CC[C@@H]3C[C@@H](O)CC(=O)O3)[C@H]21 [MEVASTATIN]	31.6 µM (inactive)
COC(=O)[C@@H](NC(=O)[C@H](N)Cc1ccc(N(CCCl)CCCl)cc1)C(C)C	36.5 µM (inactive)
Cc1c(Cl)cccc1NC(=O)C(=O)C1C(=O)NC(=O)NC1=O	> 100 µM (inactive)
NC(Cc1ccc(S(=O)(=O)O)cc1)C(=O)NC(CCCCNC(=O)NCCCCC(NC(=O)C(N)Cc1ccc(S(=O)(=O)O)cc1)C(=O)NC(Cc1ccc(S(=O)(=O)O)cc1)C(=O)O)C(=O)NC(Cc1ccc(S(=O)(=O)O)cc1)C(=O)O (centres undefined)	> 100 µM (inactive)
Cc1c(C(Cc2ccccc2N(C)C(=O)/C=C\C(=O)O)c2c[nH]c3ccccc23)c2ccccc2n1C (centres undefined)	21.2 µM (inactive)
CCc1nc2ccc(NCCN(C)C)c3c(=O)c4ccccc4n1c23	1.67 µM (inactive)
COc1ccc(/C=C2\CCC(C)(CN(C)C)C2=O)cc1Br (centres undefined)	37.7 µM (inactive)
CN(N=O)c1ccc(/C=C/c2ccnc3ccccc23)cc1	> 100 µM (inactive)
